- MEASUREMENT TARGET: CDK9/Cyclin K (Homo sapiens, UniProt P50750)
- Sequence (P50750 whole entry): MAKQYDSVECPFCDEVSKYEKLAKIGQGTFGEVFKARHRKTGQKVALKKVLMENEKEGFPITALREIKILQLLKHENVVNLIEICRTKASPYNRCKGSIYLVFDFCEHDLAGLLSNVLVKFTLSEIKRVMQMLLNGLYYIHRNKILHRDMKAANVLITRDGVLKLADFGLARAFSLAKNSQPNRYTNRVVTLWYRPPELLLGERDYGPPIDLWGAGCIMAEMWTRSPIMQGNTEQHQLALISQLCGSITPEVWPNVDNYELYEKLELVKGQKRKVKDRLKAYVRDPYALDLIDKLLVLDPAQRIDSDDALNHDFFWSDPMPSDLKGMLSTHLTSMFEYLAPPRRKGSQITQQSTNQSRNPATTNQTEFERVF
- Sequence (O75909 whole entry partner): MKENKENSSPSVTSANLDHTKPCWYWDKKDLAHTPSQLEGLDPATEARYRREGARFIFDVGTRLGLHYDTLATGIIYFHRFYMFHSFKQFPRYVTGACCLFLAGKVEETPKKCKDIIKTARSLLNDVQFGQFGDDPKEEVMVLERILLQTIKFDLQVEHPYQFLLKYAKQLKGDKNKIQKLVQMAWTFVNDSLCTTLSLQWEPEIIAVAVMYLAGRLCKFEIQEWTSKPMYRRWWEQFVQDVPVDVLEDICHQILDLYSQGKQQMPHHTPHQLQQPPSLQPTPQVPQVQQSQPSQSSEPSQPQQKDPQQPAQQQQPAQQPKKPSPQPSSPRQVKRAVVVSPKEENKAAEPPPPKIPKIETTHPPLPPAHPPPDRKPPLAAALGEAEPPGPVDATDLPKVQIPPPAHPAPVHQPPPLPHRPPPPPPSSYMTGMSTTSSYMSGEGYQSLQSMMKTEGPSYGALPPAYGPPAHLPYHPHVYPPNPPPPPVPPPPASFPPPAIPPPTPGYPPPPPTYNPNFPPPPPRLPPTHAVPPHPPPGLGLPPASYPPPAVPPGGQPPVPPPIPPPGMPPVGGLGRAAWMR
- PROCEDURE SUMMARY: Inhibition of CDK9/Cyclin K kinase activity (ADP-Glo)
- Type: biochemical
- RECORDED CONDITIONS: mean of multiple measurement series; ATP 50 μM; read-out: CDK9/Cyclin K IC50
MEASUREMENT LABEL: IC50 (nM)

[[record]]
input_smiles = "Cn1cc(-n2ccc3c(-c4nc(N[C@H]5CCC6(CC6)NC5)ncc4C(F)(F)F)c[nH]c3c2=O)cn1"
measurement_units = "nM"
test_result = 843


A: CC1(C)CC[C@H](Nc2ncc(C(F)(F)F)c(-c3c[nH]c4c3CCCN(C3CCC3)C4=O)n2)CN1
B: Cn1cc(-n2ccc3c(-c4nc(N[C@H]5CCCNC5)ncc4C(F)(F)F)c[nH]c3c2=O)cn1
C: Cc1noc(C)c1-n1ccc2c(-c3nc(N[C@H]4CCCNC4)ncc3C(F)(F)F)c[nH]c2c1=O
Task item: Sort the 3 molecules by IC50; largest first, smallest last. Provide your answer as the labels ordered per the instruction.
Reply: A, C, B

====

- PROCEDURE SUMMARY: Blood-brain barrier permeability: PK in mice brain homogenate following oral administration
- Assay type: in vivo, CD-1 mice
- RECORDED CONDITIONS: male, CD-1, mouse, mice brain homogenate, dose 10 mg/kg
MEASUREMENT LABEL: Cmax (ng/mL)

1: CC(C)N1CCCc2c(-c3nc(N[C@H]4CCC(C)(C)NC4)ncc3C(F)(F)F)c[nH]c2C1=O
2: CC1(C)CC[C@H](Nc2ncc(C(F)(F)F)c(-c3c[nH]c4c3CCCN(C3CC3)C4=O)n2)CN1
Task item: Field: lower Cmax | Options: 1 / 2 Output the label that corresponds to your choice.
Reply: 2
(2: 93.8 ng/mL, 1: 136 ng/mL)

====

# IC50 listing for each entry below
- MEASUREMENT TARGET: CDK7/Cyclin H/MNAT1 (Homo sapiens, UniProt P50613)
- Sequence (P50613 whole entry): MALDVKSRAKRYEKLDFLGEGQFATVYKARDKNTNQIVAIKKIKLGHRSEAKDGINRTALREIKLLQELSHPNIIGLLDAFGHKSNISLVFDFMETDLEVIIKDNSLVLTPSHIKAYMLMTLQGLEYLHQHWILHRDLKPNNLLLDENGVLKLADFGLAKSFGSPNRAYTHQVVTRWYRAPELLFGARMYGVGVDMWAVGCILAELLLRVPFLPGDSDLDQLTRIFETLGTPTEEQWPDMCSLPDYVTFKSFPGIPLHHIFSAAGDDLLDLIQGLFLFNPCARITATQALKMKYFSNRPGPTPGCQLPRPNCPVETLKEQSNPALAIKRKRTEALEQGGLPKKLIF
- Sequence (P51946 whole entry partner): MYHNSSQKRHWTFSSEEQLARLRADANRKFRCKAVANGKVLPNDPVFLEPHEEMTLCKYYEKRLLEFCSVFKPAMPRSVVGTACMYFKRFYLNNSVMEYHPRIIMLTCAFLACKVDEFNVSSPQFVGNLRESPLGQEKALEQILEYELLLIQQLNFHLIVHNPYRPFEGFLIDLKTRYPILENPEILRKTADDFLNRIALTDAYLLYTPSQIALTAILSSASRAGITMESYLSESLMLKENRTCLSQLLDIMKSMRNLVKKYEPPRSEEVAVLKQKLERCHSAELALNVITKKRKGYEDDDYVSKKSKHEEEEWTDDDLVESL
- Sequence (P51948 whole entry partner): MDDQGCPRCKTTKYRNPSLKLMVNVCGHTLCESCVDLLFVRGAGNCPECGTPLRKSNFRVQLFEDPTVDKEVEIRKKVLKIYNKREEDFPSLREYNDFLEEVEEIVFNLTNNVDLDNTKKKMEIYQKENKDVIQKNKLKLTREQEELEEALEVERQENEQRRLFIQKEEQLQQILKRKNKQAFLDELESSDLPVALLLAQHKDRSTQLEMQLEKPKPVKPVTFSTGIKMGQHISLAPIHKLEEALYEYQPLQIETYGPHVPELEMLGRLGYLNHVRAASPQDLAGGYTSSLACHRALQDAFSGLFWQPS
- PROCEDURE SUMMARY: Inhibition of CDK7/Cyclin H/MNAT1 kinase activity (ADP-Glo)
- Format: biochemical
- RECORDED CONDITIONS: mean value from several measurements; read-out: IC50 CDK7/Cyclin H/MNAT

Task item: Please tell me: IC50 of FC(F)(F)c1cnc(N[C@H]2CCCNC2)nc1-c1c[nH]c(-c2noc(C3CC3)n2)c1 [CDK7_1103] , system CDK7/Cyclin H/MNAT1 (Homo sapiens, UniProt P50613)?
Reply: < 5 nM

Task item: Missing value: IC50, CDK7/Cyclin H/MNAT1 (Homo sapiens, UniProt P50613), entry CN1CCC[C@H](Nc2ncc(C(F)(F)F)c(-c3c[nH]c(C(=O)N(C)C)c3)n2)C1 [CDK7_1019] . Fill in?
Reply: 5 to 50 nM

Task item: Lab note: need IC50 for FC(F)(F)c1cnc(N[C@H]2CCCNC2)nc1-c1c[nH]c(-c2ccccn2)c1 [CDK7_1061] on CDK7/Cyclin H/MNAT1 (Homo sapiens, UniProt P50613), anyone have it?
Reply: 5 to 50 nM

Task item: Hello, I am looking for reported IC50 with CDK7/Cyclin H/MNAT1 (Homo sapiens, UniProt P50613) for O=C(NC1CC1)c1cc(-c2nc(N[C@H]3CCCNC3)ncc2C(F)(F)F)c[nH]1 [CDK7_951] . Could you help?
Reply: < 5 nM

Task item: Test system CDK7/Cyclin H/MNAT1 (Homo sapiens, UniProt P50613); read-out IC50; what value for CNC(=O)c1cc(-c2nc(N[C@H]3CCCNC3)ncc2C(F)(F)F)c[nH]1 [CDK7_846] ?
Reply: 5 to 50 nM

Task item: API: value(readout= IC50, system= CDK7/Cyclin H/MNAT1 (Homo sapiens, UniProt P50613), query= O=C(NCC(F)(F)F)c1cc(-c2nc(N[C@H]3CCCNC3)ncc2C(F)(F)F)c[nH]1 [CDK7_847] )
Reply: 5 to 50 nM
